Hello, the source for this data is ChEMBL document CHEMBL1130998, in case you need it.

# Test system: Panel NCI-60 (60 carcinoma cell lines)
# assay.overview: In vitro cytotoxic potency against NCI-60 human tumor cell line
# Type: functional
metric.name: GI50

>>> reading("COc1ccc(-c2cc(=O)c3c(OC)c(OC)c(OC)c(OC)c3o2)c(OC)c1")
"26 µM"
>>> reading("COc1c(O)cc2oc(-c3ccc(O)cc3)cc(=O)c2c1O")
"33 µM"
>>> reading("COc1ccc2oc(-c3ccc(OC)c(OC)c3OC)cc(=O)c2c1")
"42 µM"
>>> reading("COc1ccc(-c2cc(=O)c3c(O)c(OC)c(O)cc3o2)cc1O")
"6 µM"
>>> reading("COc1ccc(-c2cc(=O)c3c(OC)c(OC)c(OC)cc3o2)cc1")
"28 µM"

# return GI50 for each item in the list
1. COc1c(O)c(OC)c2oc(-c3ccc(O)c(O)c3)c(OC)c(=O)c2c1O
2. O=c1c(O)c(-c2c(O)cccc2O)oc2cc(O)cc(O)c12
3. COc1ccc(-c2oc3c(OC)c(OC)c(OC)c(OC)c3c(=O)c2OC)cc1OC
4. COc1ccc(-c2cc(=O)c3c(OC)c(O)c(OC)cc3o2)cc1
5. COc1ccc(-c2oc3cc(OC)c(OC)c(OC)c3c(=O)c2O)cc1O
6. COc1ccc(-c2cc(=O)c3c(O)c(OC)c(O)cc3o2)cc1OC
7. COc1cc(O)c2c(=O)c(O)c(-c3ccc(OC)c(O)c3)oc2c1
8. COc1ccc(-c2oc3ccccc3c(=O)c2O)cc1OC [3-HYDROXY-3',4'-DIMETHOXYFLAVONE]

1: 20 µM; 2: > 100 µM; 3: > 27 µM; 4: 43 µM; 5: 14 µM; 6: 15 µM; 7: 37 µM; 8: 32 µM

# return GI50 for each item in the list
1. COc1cc(-c2oc3c(OC)c(OC)c(OC)c(O)c3c(=O)c2OC)ccc1O
2. COc1ccc(-c2cc(=O)c3c(O)cc(C)cc3o2)cc1OC

7.6 µM
> 100 µM

# return GI50 for each item in the list
1. COc1ccc(-c2cc(=O)c3c(O)c(OC)c(O)cc3o2)cc1
2. COc1cc(OC)cc(-c2cc(=O)c3c(OC)c(OC)c(OC)c(OC)c3o2)c1

1. > 31 µM
2. 30 µM

# return GI50 for each item in the list
1. COc1ccc(-c2oc3cc(O)c(OC)cc3c(=O)c2OC)cc1O
2. COc1cc(-c2oc3c(OC)c(O)c(OC)c(O)c3c(=O)c2OC)cc(O)c1OC
3. COc1ccc(-c2oc3c(O)c(OC)cc(O)c3c(=O)c2OC)cc1OC

19 µM
32 µM
> 100 µM
